As shown below, each of these sequences has a reported fraction ligated value.
system: F1*sub RNA substrate (template-directed ligation); assay: fraction ligated after 30 min (ligated reads / total reads); higher = more ligase activity; sequences stand for … in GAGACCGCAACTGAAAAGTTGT…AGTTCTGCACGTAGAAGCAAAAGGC; settings: 42 °C
reported-endpoint: fraction ligated

# sequence-chain, quantitative-result
rows = [
    ("TACACTTGTCGTAAACCTTTGGATGGGTTGA [3d673]", 0.0569),
    ("TCACTTGTCGTAGACACTTTGGATGGGTTGA [3d11]", 0.765),
    ("TATCCTTGTGTAAGACACTTTGGATGGTTGA [3d1012]", 0.0285),
    ("TATCACTTCGTAAGACACTTTGATGGGTTGA [3d1321]", 0.795),
    ("TATCCTTGTCGTAAGACACTTTGGATGGGTT [3d1119]", 0.0366),
    ("ATCACTTGTGTAAGACACTTTGGATGGTTGA [3d168]", 0.45),
    ("TACACTTGTCGTAAGACACTTTGGAGGGTTA [3d732]", 0.0323),
    ("TATCACTTGTCGTAAGACATTTGTGGGTTGA [3d2215]", 0.00941),
    ("TATCACTTGTCGTAAGACCTTTGGATGGTTA [3d2203]", 0.127),
    ("ATCACTTTCGTAAGACACTTTGGATGGGTTGA [2d7]", 0.772),
    ("TATCACTTGCGTAAGAACTTGGATGGGTTGA [3d1660]", 0.827),
]

* * *

As shown below, each of these sequences has a reported fraction ligated value.
test system: F1*sub RNA substrate (template-directed ligation); assay: fraction ligated after 30 min (ligated reads / total reads); higher = more ligase activity; sequences stand for … in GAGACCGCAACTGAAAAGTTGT…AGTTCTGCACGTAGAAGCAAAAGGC; settings: 42 °C

# sequence-chain, target-or-test-system, fraction ligated
data = [
    ("TTCACTTTCGTAAGACACTTTGGATGGGTTA [3d369]", "F1*sub RNA substrate (template-directed ligation)", 0.0133),
    ("AACTTGTCGTAAGACACTTTGGATGGGTTGA [3d24]", "F1*sub RNA substrate (template-directed ligation)", 0.293),
    ("TATCACTTGTCGTAAGAATTTGGATGGGTTGA [2d254]", "F1*sub RNA substrate (template-directed ligation)", 0.8),
    ("TACACTGTCGTAAACACTTTGGATGGGTTGA [3d573]", "F1*sub RNA substrate (template-directed ligation)", 0.181),
    ("TATCACTTGTCGAAGACACTTTGAGGGTTGA [3d1966]", "F1*sub RNA substrate (template-directed ligation)", 0.0437),
    ("TATCATTGCTAAGACACTTTGGATGGGTTGA [3d1157]", "F1*sub RNA substrate (template-directed ligation)", 0.784),
    ("TATCACTTGTCGAAGAACTTTGATGGGTTGA [3d1937]", "F1*sub RNA substrate (template-directed ligation)", 0.796),
    ("TATCACTTGTCTAAGACATTTGATGGGTTGA [3d1872]", "F1*sub RNA substrate (template-directed ligation)", 0.345),
    ("TACACTTGTCGAAGACACTTTGGAGGGTTGA [3d655]", "F1*sub RNA substrate (template-directed ligation)", 0.126),
    ("TATCACTTGTGTAAGACACTTTGGTGGTTGA [3d1800]", "F1*sub RNA substrate (template-directed ligation)", 0.0267),
    ("TATCACTTGTCGTAAGCCTTTGGATGGGTTA [3d2119]", "F1*sub RNA substrate (template-directed ligation)", 0.79),
]

* * *

test system: F1*sub RNA substrate (template-directed ligation); assay: fraction ligated after 30 min (ligated reads / total reads); higher = more ligase activity; sequences stand for … in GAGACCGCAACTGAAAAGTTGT…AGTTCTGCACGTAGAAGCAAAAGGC; details: 42 °C
As shown below, each of these sequences has a reported fraction ligated value.

# sequence-chain, fraction ligated
records = [
    ("TACACTTGGTAAGACACTTTGGATGGGTTGA [3d601]", 0.0847),
    ("TATCTTGTCGTAAGACACTTTGGAGGGTTGA [3d754]", 0.0612),
    ("TATCATTTCTAAGACACTTTGGATGGGTTGA [3d1141]", 0.786),
    ("ATCCTTGTCGTAAGACACTTTGGATGGGTTA [3d84]", 0.218),
    ("TTCACTTGTCTAAGACACTTTGGATGGGTTGA [2d32]", 0.768),
    ("TATACTTGCGTAAGACCTTTGGATGGGTTGA [3d819]", 0.629),
    ("ATCACTTGTCGTAAGACACTTTGGAGGTTGA [3d270]", 0.0103),
    ("TTCACTTGTCGTAAACATTTGGATGGGTTGA [3d444]", 0.804),
    ("TTCACTGTCGTAAGACACTTTGGATGGTTGA [3d352]", 0.498),
    ("TATACTTGTCGTAAACACTTTGGTGGGTTGA [3d888]", 0.019),
    ("TATCACTTGTCGTAGCACTTTGGATGGGTTG [3d2012]", 0.792),
    ("TACACTGTCGTAAGACACTTTGGATGGTTGA [3d582]", 0.375),
    ("TATCCTTGTCTAGACACTTTGGATGGGTTGA [3d1016]", 0.763),
    ("TACACTTGTCGTAGACACTTTGATGGGTTGA [3d666]", 0.0743),
    ("TATCCTTGTCGTAAACACTTTGGATGGTTGA [3d1062]", 0.0319),
    ("TTCACTTGTCGTAAGCACTTTGGATGGGTTA [3d460]", 0.0582),
    ("ATCATTGTCGTAAGACACTTTGGATGGGTTG [3d104]", 0.703),
    ("TACACTTGTCGTAAGACATTGGATGGGTTGA [3d707]", 0.239),
    ("TTCACTTTCGTAAGACACTTTGGAGGGTTGA [3d367]", 0.0281),
    ("TATCACGTCGTAGACACTTTGGATGGGTTGA [3d1298]", 0.801),
    ("TATCACTTGTGTAAACACTTTGGATGGTTGA [3d1751]", 0.328),
    ("TATCATTGTCGTAAGACACTTGGATGGGTTA [3d1274]", 0.728),
    ("TACACTTGTCGTAGAACTTTGGATGGGTTGA [3d662]", 0.145),
    ("TATCACTTGTCGTAGAACTTTGGATGGGTTG [3d2020]", 0.854),
]

* * *

test system: F1*sub RNA substrate (template-directed ligation); assay: fraction ligated after 30 min (ligated reads / total reads); higher = more ligase activity; sequences stand for … in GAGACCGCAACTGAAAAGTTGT…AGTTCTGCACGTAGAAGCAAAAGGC; conditions: 42 °C

# sequence-chain, fraction ligated
records = [
    ("TACACTGTCGTAAGACACTTTGGAGGGTTGA [3d581]", 0.292),
    ("TTCACTTGTCAAGACACTTTGGATGGGTTGA [3d402]", 0.719),
    ("TATCACTTGTCGTAAGAACTTGGAGGGTTGA [3d2162]", 0.0364),
    ("TATCACTTGTCGTACACTTTGGATGGGTTGA [3d1981]", 0.797),
    ("TATCATGTCGTAAGACACTTTGGATGGTTGA [3d1137]", 0.268),
    ("TATACTTGTCGTAAGACATTTGGATGGGTTGA [2d82]", 0.751),
    ("ATACTTGTCGTAGACACTTTGGATGGGTTGA [3d54]", 0.0939),
    ("TACACTTGTGTAAACACTTTGGATGGGTTGA [3d620]", 0.0848),
    ("TATCACTTGTCGAAGAATTTGGATGGGTTGA [3d1935]", 0.776),
    ("ATCACTGTCGTAAGAACTTTGGATGGGTTGA [3d114]", 0.848),
    ("TATCACTTCGTAAGACACTTTGGATGGTTGA [3d1324]", 0.122),
    ("TATCACTTGTCTAAGACACTTGGTGGGTTGA [3d1880]", 0.113),
    ("TACACTTTCTAAGACACTTTGGATGGGTTGA [3d586]", 0.0445),
    ("TATCACTTGCGTAAGACACTTGGATGGGTTG [3d1687]", 0.796),
    ("TATCACTTGTCTAAACCTTTGGATGGGTTGA [3d1837]", 0.789),
    ("TTCACTTGTGTAAGAACTTTGGATGGGTTGA [3d392]", 0.694),
    ("TATCACTTGTCGTAGACACTTTGGAGGGTTG [3d2054]", 0.0621),
    ("ATCACTTGTCGTAAGACACTTTGGATGGGTTG [2d24]", 0.769),
    ("TATCACTTGTCTAGACACTTTGGTGGGTTGA [3d1831]", 0.195),
    ("TTCACTTGTGTAAGACACTTTGGATGGGTTG [3d401]", 0.726),
    ("TATCACTTGTCGTAAGACACTTGGTGGGTTG [3d2247]", 0.0184),
    ("TATCCTTGTCTAAGACCTTTGGATGGGTTGA [3d1020]", 0.786),
    ("ATACTTGTCGTAAGACACTTTGGAGGGTTGA [3d63]", 0.0364),
    ("TATCACTTGTCGTAAGAACTTTGGATGGTTG [3d2180]", 0.0734),
    ("TTCACTTGTCGTAAACACTTTGGATGGGTTG [3d451]", 0.177),
    ("TATCACTGTGTAAGACATTTGGATGGGTTGA [3d1350]", 0.849),
    ("TACATTGTCGTAAGACACTTTGGATGGGTTG [3d565]", 0.163),
    ("TATATTGTCGTAAGACACTTTGGAGGGTTGA [3d773]", 0.0159),
    ("TATCACTTGTCTAAGCACTTTGATGGGTTGA [3d1850]", 0.724),
    ("TTCACTTGTCGAAGCACTTTGGATGGGTTGA [3d418]", 0.287),
    ("TATCACTGCTAAGACACTTTGGATGGGTTGA [3d1328]", 0.81),
    ("TACACTTGTCGTAAGACACTTTGGATGGGTTGA [1d3]", 0.748),
    ("TTCACTTGCGTAAGACACTTGGATGGGTTGA [3d380]", 0.182),
    ("TATCACTTTCGTAAGACACTTTGGATGGGTTGA [1d8]", 0.815),
    ("TATCACTTGCGTAAGACACTTTGTGGGTTGA [3d1689]", 0.05),
    ("TTCACTTGCGTAAGACACTTTGATGGGTTGA [3d381]", 0.055),
    ("TATACTTGTCGTAGAACTTTGGATGGGTTGA [3d873]", 0.831),
    ("TATCACTTGTCGTAAGCACTTGGATGGTTGA [3d2132]", 0.108),
    ("TATCATTGTCGAAGAACTTTGGATGGGTTGA [3d1204]", 0.809),
    ("TATCACTTGTCGTAAGACATTTGGTGGGTTG [3d2223]", 0.0154),
    ("TATCACTTGTCGTAAACACTTTGGATGGGTTA [2d242]", 0.77),
    ("TATCACTTGTCGTAAAACTTGGATGGGTTGA [3d2060]", 0.782),
    ("TATCACTTGTCTAAGCACTTTGGATGGGTTG [3d1855]", 0.75),
    ("TTCACTTGTCGTAAGAACTTTGATGGGTTGA [3d464]", 0.119),
    ("TATCACTTGTCTAAGACCTTTGGAGGGTTGA [3d1867]", 0.202),
    ("TATCCTTGCGTAAGACACTTTGGATGGGTTA [3d998]", 0.403),
    ("TATCACTTGCGAAGACACTTTGGAGGGTTGA [3d1622]", 0.105),
]
